# subjectOfTest: AMP-activated protein kinase, AMPK (Homo sapiens) (UniProt P54646+O43741+P54619+Q9UGJ0+Q9Y478+Q13131+Q9UGI9)
# assayExplanation: AMP-dependent Kinase enzyme assay. An in vitro enzyme assay that detects ADP turnover that is directly proportional to AMPK activity. This uses naive AMPK that is activated during the assay with MK-8722
# Type: functional
# Set-up: scale not given: direction of the effect not stated beside the values
# conditionNotes: 30 µM
Here, each record is paired with measured Percent Effect data.

compound	Percent Effect / %
O=c1c(CN2CCOCC2)coc2ccc(Cl)cc12	-2.73
Cc1ccc(-c2noc(C3CCN3C(=O)c3c(C)noc3C)n2)s1 (configuration not stated)	5.86
CN(CCc1ccncc1)CCc1nccs1	1.48
CO[C@@H]1CC[C@@H](NC(=O)CCc2ccc(Cl)cc2)[C@H]1O	8.1
O=C(Cc1ccc2c(c1)CCC2)NC1CCN(Cc2ccccc2)CC1	-0.352
CCN1CC2(CCN(CC3COCCO3)CC2)OC1=O (configuration not stated)	-1.21
CC(C)C[C@@H](N)C(=O)N(C)Cc1csc(C(C)C)n1	-10.4
CCN(Cc1cnn(CC)c1)Cc1c(Cl)cncc1Cl	6.24
Cc1ccnc2c1NC(=O)CN2C(=O)CCc1ccccc1	-1.93
Cc1nc(O)cc(CN2C[C@H](NC(=O)C3CCC3)[C@@H](C3CC3)C2)n1	-2.67
COc1cccc(S(=O)(=O)N2CCOC(C)(C(N)=O)C2)c1 (configuration not stated)	22.4
Cc1cnn(CCCNC(=O)NC(C)C(=O)Nc2ccccc2)c1 (configuration not stated)	4.78
